Sourced from patent US20200347127A1

Kd: recorded values
Target: T1, recombinant human IL-17A (human, UniProt Q16552 24-155)
T1 construct: Bought recombinant protein (Peprotech AF-200-17); also called Peprotech AF-200-17
T1 sequence (Q16552 24-155): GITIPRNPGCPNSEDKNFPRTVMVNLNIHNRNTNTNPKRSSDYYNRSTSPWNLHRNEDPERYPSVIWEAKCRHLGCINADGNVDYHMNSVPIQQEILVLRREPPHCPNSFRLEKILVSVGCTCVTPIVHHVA
Test: SPR (BIAcore T200), IL-17A coupled to CM5 chip, single-cycle kinetics;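 note: VH domain analytes, kinetic constants obtained by fitting blank-corrected sensorgrams to a 1:1 binding model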
Your reply should be a number followed by the unit it is expressed in.

Consider the worked cases shown below.
BINDER	Kd
VH 1.20.1 (clone 1.20 expressed from phagemid vector: with linker residues and His tag) (VHH, Human single VH domain) VHH: EVQLVESGGGLVQPGGSLRLSCAASGFTFSSYGMYWVRQAPGKGLEWVAKIEQDGSEEYYADSVKGRFTISRDNAKKSLYLQMNSLRAEDTAVYYCAKGEILPLYFDYWGQGTLVTVSS	0.244 nM
VH 1.10.1 (clone 1.10 expressed from phagemid vector: with linker residues and His tag) (VHH, Human single VH domain) VHH: EVQLVESGGGLVQPGGSLRLSCAASGFTFSSYRMYWVRQAPGKGLEWVASIEQDGSEEYYVDSVKGRFTISRDNAKKSLFLQMNSLRAEDTAVYYCAKGEILPLYFDYWGQGTLVTVSS	1.46 nM
VH 1.16.1 (clone 1.16 expressed from phagemid vector: with linker residues and His tag) (VHH, Human single VH domain) VHH: EVQLVESGGGLVQPGGSLRLSCAASGFTFSSYSMYWVRQAPGKGLEWVAEIKQDGSEQYYVDSVKGRFTISRDNAKNSLYLQMNGLRAEDTAVYYCAKGEILPLYFDYWGQGTLVTVSS	0.216 nM
Clone 1.12 (VHH, Human single VH domain) VHH: QVQLVESGGGLVQPGGSLRLSCAASGFTFSSYGMYWVRQAPGKGLEWVAKIEQDGSEEYYVDSVKGRFTISRDNAKNSLYLQMNSLRAEDTAVYYCAKGEILPLYFDYWGQGTLVTVSS	0.724 nM

Now consider the entry below.
Query block: I would be grateful if you could share the reported Kd for VH 1.19.1 (clone 1.19 expressed from phagemid vector: with linker residues and His tag) (VHH, Human single VH domain) VHH: EVQLVESGGGLVQPGGSLRLSCATSGFTFSSYGMYWVRQAPGKGLEWVAEIKQDGSEKYYVDSVKGRFTISRDNAKNSLYLQMNSLRAEDTAVYYCAKGEILPLYFDYWGQGTLVTVSS .
Result block: 0.215 nM
